The values you see were collected from patent US10647690B2.

test_system: Cathepsin B (Homo sapiens, UniProt P07858)
Construct: purchased Biovision K147-100
assay_text: IC50 determination against Cathepsin B (Biovision kit K147-100)
Format: biochemical
condition_context: selectivity for Cathepsin B over Cathepsin S
Quick rule for you: Selectiviy vs Cathepsin S (fold) under 400 fold gets Fulfilled, anything else gets Not fulfilled.

Q) Does CCOC(=O)[C@H]1O[C@@H]1C(=O)N[C@@H](CCSC)C(=O)NC(CC)CC have Selectiviy vs Cathepsin S (fold) strictly under 400 fold?
A) Fulfilled

Q) Identify whether the compound CCOC(=O)[C@H]1O[C@@H]1C(=O)N[C@@H](CCSC)C(=O)NCCCCc1ccccc1 records Selectiviy vs Cathepsin S (fold) below 400 fold.
A) Fulfilled

Q) Record CCOC(=O)[C@H]1O[C@@H]1C(=O)N[C@@H](CCSC)C(=O)NCCCc1ccccc1 : is its Selectiviy vs Cathepsin S (fold) strictly below 400 fold?
A) Not fulfilled

Q) Just wondering, is Selectiviy vs Cathepsin S (fold) of CCOC(=O)[C@H]1O[C@@H]1C(=O)N[C@@H](CCSC)C(=O)NCCc1cccc(F)c1 below 400 fold?
A) Fulfilled

Q) hey, is Selectiviy vs Cathepsin S (fold) for CCOC(=O)[C@H]1O[C@@H]1C(=O)N[C@@H](CC(C)C)C(=O)NCCC(C)C [zxy-37, E64d, reference compound] lower than 400 fold or not?
A) Fulfilled

Q) For CCCCCCNC(=O)[C@H](CCSC)NC(=O)[C@H]1O[C@@H]1C(=O)OCC , is the recorded Selectiviy vs Cathepsin S (fold) below the cut-off of 400 fold?
A) Not fulfilled

Q) Quick check: does CCOC(=O)[C@H]1O[C@@H]1C(=O)N[C@@H](CCSC)C(=O)N1CCC(c2ccccc2)CC1 have Selectiviy vs Cathepsin S (fold) under 400 fold?
A) Fulfilled

###

test_system: Cathepsin K (Homo sapiens, UniProt P43235)
Construct: purchased Biovision K150-100
Sequence (P43235 115-329): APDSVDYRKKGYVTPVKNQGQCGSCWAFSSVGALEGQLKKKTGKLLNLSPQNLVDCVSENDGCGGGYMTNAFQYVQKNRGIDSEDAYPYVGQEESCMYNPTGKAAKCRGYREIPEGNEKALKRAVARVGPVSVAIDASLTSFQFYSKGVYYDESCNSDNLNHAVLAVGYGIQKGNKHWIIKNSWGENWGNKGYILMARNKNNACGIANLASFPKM
assay_text: Preliminary screening of Cathepsin K (Cathepsin K Inhibitor Screening Kit K150-100, Biovision)
Type: biochemical
condition_context: 10 μM compound; replicate 1; relative inhibition rate vs 10 μM FF-FMK control; read-out: Inhibition % (10 μM) replicate 1
Assign inhibition at 10 µM to each entry below.
Answer in %, number only, no unit symbol.

Recorded inhibition at 10 µM (compound CCOC(=O)[C@H]1O[C@@H]1C(=O)N[C@@H](CCSC)C(=O)N1CCCC(C)C1 (stereo partly shown) ): 37.4

Note to self: inhibition at 10 µM recorded for CCOC(=O)[C@H]1O[C@@H]1C(=O)N[C@@H](CCSC)C(=O)NCC(C)CC (stereo partly shown) was 42

Sure, the documented inhibition at 10 µM for CCOC(=O)[C@H]1O[C@@H]1C(=O)N[C@@H](CCSC)C(=O)N1CCC(c2ccccc2)CC1 is 108

The measured inhibition at 10 µM associated with CCOC(=O)[C@H]1O[C@@H]1C(=O)N[C@@H](CCSC)C(=O)NC(CC)CC reads 97.3

###

test_system: Cathepsin K (Homo sapiens, UniProt P43235)
Construct: purchased Biovision K150-100
Sequence (P43235 115-329): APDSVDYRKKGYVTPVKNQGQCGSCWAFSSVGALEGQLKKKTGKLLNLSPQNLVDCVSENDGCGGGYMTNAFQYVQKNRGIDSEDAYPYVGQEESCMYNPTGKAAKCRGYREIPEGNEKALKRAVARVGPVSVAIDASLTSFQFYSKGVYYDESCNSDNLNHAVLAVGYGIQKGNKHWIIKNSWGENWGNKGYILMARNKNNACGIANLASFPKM
assay_text: Preliminary screening of Cathepsin K (Cathepsin K Inhibitor Screening Kit K150-100, Biovision)
Assay type: biochemical
condition_context: 1 μM compound; replicate 2; relative inhibition rate vs 10 μM FF-FMK control; read-out: Inhibition % (1 μM) replicate 2
Assign class by inhibition at 1 µM: not lower than 30% means label 1; lower than 30% means label 0.

Q) Quick check, inhibition at 1 µM >= 30%? CCOC(=O)[C@H]1O[C@@H]1C(=O)N[C@@H](CCSC)C(=O)NCC(C)(C)C
A) label 0

Q) Record CCCCCCNC(=O)[C@H](CCSC)NC(=O)[C@H]1O[C@@H]1C(=O)OCC ; criterion: inhibition at 1 µM no lower than 30%. Met?
A) label 1

Q) Would you say CCOC(=O)[C@H]1O[C@@H]1C(=O)N[C@@H](CSCc1ccccc1)C(=O)NCC(C)(C)C shows inhibition at 1 µM at minimum 30%?
A) label 1

Q) Entry CCOC(=O)[C@H]1O[C@@H]1C(=O)N[C@@H](CSCc1ccccc1)C(=O)NC(C)(C)CC : is its inhibition at 1 µM no less than 30%?
A) label 1

Q) Please indicate if the recorded inhibition at 1 µM for CCOC(=O)[C@H]1O[C@@H]1C(=O)N[C@@H](CCSC)C(=O)NCCc1ccc(C)cc1 meets or exceeds 30%.
A) label 1

Q) Answer whether inhibition at 1 µM of CCOC(=O)[C@H]1O[C@@H]1C(=O)N[C@@H](CCSC)C(=O)NCCc1ccc(OC)cc1 is greater than or equal to 30%.
A) label 1

Q) Answer whether inhibition at 1 µM of CCCNC(=O)[C@H](CSCc1ccccc1)NC(=O)[C@H]1O[C@@H]1C(=O)OCC is greater than or equal to 30%.
A) label 1

Q) Hi team, for CCOC(=O)[C@H]1O[C@@H]1C(=O)N[C@@H](CCSC)C(=O)NC(C)(C)CC , is the recorded inhibition at 1 µM at or above 30%?
A) label 1

Q) Item CCCCCCNC(=O)[C@H](CSCc1ccccc1)NC(=O)[C@H]1O[C@@H]1C(=O)OCC with inhibition at 1 µM of 30% or above?
A) label 1

Q) Dear colleague, could you confirm whether CCOC(=O)[C@H]1O[C@@H]1C(=O)N[C@@H](CCSC)C(=O)N1CCCC(C)C1 (stereo partly drawn) has inhibition at 1 µM at or above 30%?
A) label 0

Q) Tell me whether inhibition at 1 µM is at least 30% here: CCOC(=O)[C@H]1O[C@@H]1C(=O)N[C@@H](CCSC)C(=O)NCCCc1ccccc1
A) label 1

Q) Tell me whether inhibition at 1 µM is at least 30% here: CCOC(=O)[C@H]1O[C@@H]1C(=O)N[C@@H](CCSC)C(=O)N1CCOCC1
A) label 0

Q) Decide: inhibition at 1 µM of CCOC(=O)[C@H]1O[C@@H]1C(=O)N[C@@H](CCSC)C(=O)NCCCCc1ccccc1 >= 30%?
A) label 1

Q) Is inhibition at 1 µM for CCOC(=O)[C@H]1O[C@@H]1C(=O)N[C@@H](CCSC)C(=O)N1CCSCC1 at or above 30%?
A) label 0

Q) Is inhibition at 1 µM for CCOC(=O)[C@H]1O[C@@H]1C(=O)N[C@@H](CCSC)C(=O)N1CCC(c2ccccc2)CC1 at or above 30%?
A) label 1

Q) Has CCOC(=O)[C@H]1O[C@@H]1C(=O)N[C@@H](CCSC)C(=O)NCC(C)CC (stereo partly drawn) a recorded inhibition at 1 µM greater than or equal to 30%?
A) label 0

Q) Please indicate if the recorded inhibition at 1 µM for CCOC(=O)[C@H]1O[C@@H]1C(=O)N[C@@H](CSCc1ccccc1)C(=O)N1CCC(c2ccccc2)CC1 meets or exceeds 30%.
A) label 1

###

test_system: Cathepsin L (Homo sapiens, UniProt P07711)
Construct: purchased Biovision K161-100
Sequence (P07711 114-333): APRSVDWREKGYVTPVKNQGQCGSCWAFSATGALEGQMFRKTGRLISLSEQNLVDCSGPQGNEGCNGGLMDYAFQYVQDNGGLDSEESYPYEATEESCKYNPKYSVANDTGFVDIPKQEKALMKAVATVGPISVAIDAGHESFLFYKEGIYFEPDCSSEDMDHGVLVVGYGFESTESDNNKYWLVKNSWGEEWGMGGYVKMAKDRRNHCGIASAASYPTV
assay_text: IC50 determination against Cathepsin L (Biovision kit K161-100)
Type: biochemical
condition_context: CTSL; average of Exp-1 and Exp-2; read-out: Ave of IC50
measured_parameter: IC50 (µM)
Give the number; µM is assumed, so skip it.

get_value(item= CCOC(=O)[C@H]1O[C@@H]1C(=O)N[C@@H](CCSC)C(=O)NCCCc1ccccc1 [Compound 8] , readout=IC50) returns 4.03

According to the records, this compound CCOC(=O)[C@H]1O[C@@H]1C(=O)N[C@@H](CCSC)C(=O)NC(CC)CC [Compound 39] displays IC50 of 9.6

Summary for this compound, CCCCCCNC(=O)[C@H](CCSC)NC(=O)[C@H]1O[C@@H]1C(=O)OCC [Compound 5] : IC50 is 2.3

Note to self: IC50 recorded for CCOC(=O)[C@H]1O[C@@H]1C(=O)N[C@@H](CCSC)C(=O)NCCc1cccc(F)c1 [Compound 34] was 0.36

// IC50 lookup, compound = CCOC(=O)[C@H]1O[C@@H]1C(=O)N[C@@H](CCSC)C(=O)N1CCC(c2ccccc2)CC1 [Compound 13] , result: 6.25

Lab note: CCOC(=O)[C@H]1O[C@@H]1C(=O)N[C@@H](CC(C)C)C(=O)NCCC(C)C [zxy-37, E64d, reference compound] gave IC50 of 0.175

Form field IC50, entry CCOC(=O)[C@H]1O[C@@H]1C(=O)N[C@@H](CCSC)C(=O)NCCCCc1ccccc1 [Compound 40] : 4.39
